src = the supplement of paper PMC10567573

Assay: protein stability index of a GFP-peptide fusion (GPS, HEK-293T) (PSI 1-6); higher = more stable;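 note: 24-mer peptide tiles fused after GFP, lentivirally expressed, FACS-sorted into six equal bins by GFP/DsRed ratio, decoded by Illumina sequencing, PSI is the read-weighted mean bin number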
Conditions: treatment: MLN4924 1 uM, 8 h; c terminus: a fixed tail appended
Tag: fulfilled if measured protein stability index is not below 3, not fulfilled if it is.

Solved entries (count: 5):
sequence | groupLabel
MDAAPGVDLSRILNEMRDQYEKMA [KRT17] | fulfilled
VKMDSSIQPGPFRAVLKYLYTGEL [RHOBTB2] | not fulfilled
SYRPAYDQGGPVEILPFLYLGSAY [DUSP5] | not fulfilled
TVAIGAESEVYSWGKGARGRLGRR [NEK8] | fulfilled
GKSRLSPAGEMKPMPLSEGKSILL [BCL2L13] | fulfilled

Is protein stability index at least 3? Consider LKAEELLLKIHEVSTVSHADADCF [CASP6] fulfilled

Check this sequence for protein stability index at or above 3: YWKLQIFFTNVIQALGEHLKLRQQ [CCNC] not fulfilled

Entry RGDRGPGPALAGEPAGSLRELGVW [C2CD2L] : is its protein stability index no less than 3? fulfilled

Does QSRANGVKYPELVLEHSLDREEEA [PCDHGA10] have a reported protein stability index of at least 3? fulfilled

Determine whether measured protein stability index meets or exceeds 3 for EALLDRESENASLREKLRLREAEI [LRRC45] fulfilled

Could you verify whether the entry EPDALDDSLTSLQWLQEFSILNAK [FOXJ1] shows protein stability index of no less than 3? fulfilled

hey, is protein stability index for this one >= 3? DSSSSCSDHCITSSDMMDSSSFSN [VDR] fulfilled

Is the recorded value of protein stability index equal to or greater than 3 for this sequence? SSESSDAGLCMDSPSPMDPHMAEQ [CDC25B] fulfilled

---

Assay: protein stability index of a GFP-peptide fusion (GPS, HEK-293T) (PSI 1-6); higher = more stable
Settings: treatment: DMSO; c terminus: a fixed tail appended
Param threshold (3) applies to protein stability index; output 1 when value >= threshold, -1 when value < threshold.

Reference set (3 entries):
sequence | groupLabel
ERYQKIGDTKRATPIEVLCENFPE [CSNK1G3] | 1
QLVVMHPTPQVDELDILPIHPPSG [BTBD10] | 1
NFLIGRQGNKKEHVIHIIDFGLAK [CSNK1G1] | -1

Test whether the sequence TSWSQHCPWEPQKQPPWEFLQVLE [SPAG8] records protein stability index of 3 or higher. -1

protein stability index >= 3 for TSLFMTPLDVVKVRLQSQRPSMAS [SLC25A39] ? -1

Given the entry TVLLVLEDEDPEEMPKSSDFLIHP [PCDHGC5] , answer whether its protein stability index meets or surpasses 3. -1

Identify whether the reported protein stability index of the following sequence is 3 or greater: DAASLRRQIIKLNRRLQLLEEENK [MFF] 1

---

Assay: protein stability index of a GFP-peptide fusion (GPS, HEK-293T) (PSI 1-6); higher = more stable
Settings: treatment: MLN4924 1 uM, 8 h; c terminus: a fixed tail appended
So basically: protein stability index at 4 or higher? That is MET. Lower than 4? That is NOT MET.

# count of solved cases: 10
sequence | groupLabel
PGYPKMIAHDFPGIGHKVDAVFMK [MMP1] | NOT MET
EDAHLTQYKKEPVTTRQVRTIVEE [KRT17] | MET
EGSADTEDRKLPAPGADVKVHRAR [EHMT1] | MET
NPVFQDSWDTESSGSDSGGSSSSS [FAM104A] | MET
QDLIEDLKLARKAYHDPMLKLSIM [NET1] | NOT MET
SEARLSQRDLSPTAEDAELSDFEE [FCHSD1] | MET
TTLLKCYLHTNVALVAPLLRLENN [VPS39] | NOT MET
EVREARDHKEPKEEINKNISDFGR [EHMT1] | MET
RHTLQKLTCEFNNNHESLDEELHL [FBXO39] | MET
KTQIVCKHFLEAIENNKYGWFWVC [ZC3H15] | NOT MET

Continue with the next sequence.
// inclusive: protein stability index at least 4? input: STSFLPELSSVHPPHYFFTYRIRI [FBXO3] NOT MET

---

Assay: protein stability index of a GFP-peptide fusion (GPS, HEK-293T) (PSI 1-6); higher = more stable
Settings: treatment: DMSO; c terminus: a fixed tail appended
endpoint: protein stability index
Reply with the value as a number alone.

sequence | protein stability index
AAKPAASITSKPATLTTTSATSKL [ZNF207] | 4.6

Item: SPSYGRSRSRSRSRSRSRSRSNSR [SRSF1] | protein stability index: 5.39

Recorded result, HRGHCERRHRLGGVGAVPGPGTPT [ZBTB22] , protein stability index: 4.2

Form: sequence = PRPVQLDETHPYTVTSVSCCHGNT [NEK8] ; protein stability index = 3.94

protein stability index reported for this sequence KAFSRSSGLFNHRGIHNIQKRYHC [ZSCAN9] : 2.63

# sequence EEDNELNLPNLAAAYSSILSSLGE [GCH1] ; its protein stability index = 3.68

protein stability index reported for this sequence NFNPLLVAGGVAVAAIALILGVAF [CEND1] : 3.24

protein stability index for AQTNPTPGSLGPWKITIYDQENFQ [CRYBA1] is 3.18

Noted for RGDPAHAGLAELGHRLAQKLQGLE [PBXIP1] : its protein stability index reads 3.04

The sequence identified as SILFGHENRVSTLRVSPDGTAFCS [GNB5] registered its protein stability index at 2.88

Documented protein stability index of KTQIVCKHFLEAIENNKYGWFWVC [ZC3H15] : 2.62

Value of protein stability index reported for the sequence DSFLVALDMDDGTLSFIVDGQYMG [SPSB1] is 2.64

LIDYKSYMDTKLLVARFLEQSSCT [FAM189A2] has a reported protein stability index of 2.38

---

Assay: protein stability index of a GFP-peptide fusion (GPS, HEK-293T) (PSI 1-6); higher = more stable
Conditions: treatment: DMSO; c terminus: a fixed tail appended
Class 1: protein stability index at least 3. Class -1: protein stability index below 3.

Answered examples (5):
sequence | groupLabel
QARKRQEEREKEAAEQAERSQSSI [SMARCE1] | 1
TKEGGMLAYYEVCSWKGATKQRIQ [CHIT1] | -1
DVCISILHPPVDDPQSGELPSERW [CDC34] | 1
FVVTMLKLIQKKLLDKTCDQVMEF [ZER1] | 1
TPVMEGYVEVKEGKTWKQICDKHW [LOXL2] | 1

Continue with the next sequence.
State whether the measured protein stability index reaches 3, counting equality as reaching it, for NARGASIFSVTALDPDSKENAQII [PCDHGA10] 1

---

Assay: protein stability index of a GFP-peptide fusion (GPS, HEK-293T) (PSI 1-6); higher = more stable
Settings: treatment: MLN4924 1 uM, 8 h; c terminus: a fixed tail appended
Please mark Criterion met if the recorded protein stability index is equal to or greater than 4, and Criterion not met if it falls below.

sequence | groupLabel
SRGGTRGWLPSHEGHLDDGGYTPD [RBMY1A1] | Criterion met
HTRSLNSIIHQMEKFSSSLHELSS [FBF1] | Criterion not met
QIEEVFISEEIQMSTKESDFLCLL [MIA2] | Criterion not met
KGSFGKVCIVQKNDTKKMYAMKYM [STK32A] | Criterion not met
RGDPAHAGLAELGHRLAQKLQGLE [PBXIP1] | Criterion not met

Say whether STSDSDLTCDSSTSSSDDDEEVSG [C18orf25] shows protein stability index of 4 or more. Criterion met

Entry RFYLLLFSFLGLLALGVSLLCNAI [PTGFR] : is its protein stability index no less than 4? Criterion not met

Has GADCGIQWWNAVFIMLLIGIVLPV [LYSMD4] a recorded protein stability index greater than or equal to 4? Criterion not met

Could you verify whether the entry IRERPAAIPIEIKSIDDTSNFDDF [STK38L] shows protein stability index of no less than 4? Criterion met

Evaluate GRGLYVYSLQMKRVIACQKTAHDS [WDR41] : protein stability index at minimum 4? Criterion not met

Reported protein stability index reaches at least 4 for QQQQAMSFAILRIIRLVRVFRIFK [KCNA4] ? Criterion not met

// inclusive: protein stability index at least 4? input: QGITMGCWDMYRHDIDCQWVDITD [LOXL2] Criterion not met

protein stability index >= 4 for HQQVEEALSFTLLGSAPLDQEPLL [NEK8] ? Criterion not met

---

Test: protein stability index of a GFP-peptide fusion (GPS, HEK-293T) (PSI 1-6); higher = more stable
Conditions: treatment: MLN4924 1 uM, 8 h; c terminus: a fixed tail appended
Returns one of True or False; True when protein stability index is >= 3.

Examples from the recorded data:
sequence | groupLabel
SNIKFCSFHPLQYIGFYGKETTNT [PDS5B] | False
IICYSITDRRSFHEVREFKQLIYR [RIT1] | False

Item HNCAHFCINIPGSYVCRCKQGYIL [MATN2] with protein stability index of 3 or above? False

In plain terms: is recorded protein stability index at least 3 for LTPKGGVRTSYQPSSPGRFTKETT [TRIM29] ? True

Determine whether measured protein stability index meets or exceeds 3 for LSEYVSRMKETQKSIYYITGESKE [HSP90AB1] True

Please tell me: is the sequence NNSWIRKNSTMVNSEDIFLLLCLK [TRIM43] at or over 3 in terms of protein stability index? False

Does protein stability index meet or surpass 3 for HTLLNELERNPNGVADGVIKSVLW [CDKL4] ? False

Answer whether protein stability index of MFRNHLCLVFELLSYNLYDLLRNT [DYRK1B] is greater than or equal to 3. False

Check the entry VSAIIWEGNECKKMDMSVLEISGI [PHTF1] : does protein stability index equal or exceed 3? False

In plain terms: is recorded protein stability index at least 3 for VKIESVKLDFKEKAQAKVGSLDNA [MAP2] ? True
